Just for reference, ChEMBL document CHEMBL3792291 is where these values come from.

# Assayed Target: Phosphatidylinositol 4,5-bisphosphate 3-kinase catalytic subunit alpha isoform (Homo sapiens, UniProt P42336)
# Sequence (P42336 whole entry, canonical isoform): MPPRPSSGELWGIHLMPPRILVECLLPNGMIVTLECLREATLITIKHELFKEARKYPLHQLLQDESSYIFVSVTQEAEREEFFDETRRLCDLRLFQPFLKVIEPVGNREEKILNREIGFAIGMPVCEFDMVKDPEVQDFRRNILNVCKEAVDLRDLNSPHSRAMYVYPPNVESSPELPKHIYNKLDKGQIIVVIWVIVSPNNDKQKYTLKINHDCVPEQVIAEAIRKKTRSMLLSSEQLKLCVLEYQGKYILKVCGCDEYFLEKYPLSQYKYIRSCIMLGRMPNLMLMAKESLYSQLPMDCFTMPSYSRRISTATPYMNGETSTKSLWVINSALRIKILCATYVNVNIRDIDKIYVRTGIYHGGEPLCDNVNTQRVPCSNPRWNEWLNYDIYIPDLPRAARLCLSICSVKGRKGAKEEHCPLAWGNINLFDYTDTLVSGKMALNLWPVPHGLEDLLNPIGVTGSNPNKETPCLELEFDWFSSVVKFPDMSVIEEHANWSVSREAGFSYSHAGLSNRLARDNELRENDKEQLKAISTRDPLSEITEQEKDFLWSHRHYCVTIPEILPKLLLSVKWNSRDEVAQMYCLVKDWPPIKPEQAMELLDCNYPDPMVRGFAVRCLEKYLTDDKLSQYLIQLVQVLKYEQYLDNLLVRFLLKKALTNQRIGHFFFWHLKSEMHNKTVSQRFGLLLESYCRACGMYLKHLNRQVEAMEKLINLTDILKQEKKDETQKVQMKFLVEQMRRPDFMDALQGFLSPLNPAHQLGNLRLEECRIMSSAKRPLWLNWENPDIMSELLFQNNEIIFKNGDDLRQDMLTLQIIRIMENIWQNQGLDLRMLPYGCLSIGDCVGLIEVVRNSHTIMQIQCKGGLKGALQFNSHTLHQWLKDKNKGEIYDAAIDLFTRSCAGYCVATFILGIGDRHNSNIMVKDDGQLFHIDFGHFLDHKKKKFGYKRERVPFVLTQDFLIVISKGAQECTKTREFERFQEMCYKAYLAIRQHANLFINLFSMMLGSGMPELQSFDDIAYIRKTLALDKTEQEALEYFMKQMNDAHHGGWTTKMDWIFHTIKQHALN
# Method Summary: Inhibition of PI3Kalpha (unknown origin) using phosphatidylinositol as substrate incubated for 60 mins by Kinase-Glo luminescent kinase assay
Observation Type: IC50 (µM)

Test Smiles	IC50 (µM)
O=C(Nc1ccc(F)c(Cl)c1)Nc1ccc(-c2nc3c(c(N4CCOCC4)n2)CSCC3)cn1	0.69

P: O=C(Nc1ccc(F)c(Cl)c1)Nc1ccc(-c2nc3c(c(N4CCOCC4)n2)CS(=O)(=O)CC3)cn1
Q: O=C(Nc1ccc(Cl)c(C(F)(F)F)c1)N1CCN(c2nc3c(c(N4CCOCC4)n2)CS(=O)(=O)CC3)CC1
Req: Response body: label of entry with the larger IC50; valid values P , Q . Reply with the label of the item you choose.
Resp: P
(P: 6.72 µM, Q: 4.23 µM)
